Reference for the values: PubChem BioAssay (EPA / NIEHS)

Read-out: Matrix Metallopeptidase 1 (MMP1), MMP1 (gene 4312)
Assay: BSK_hDFCGF_MMP1: BioMAP Diversity Plus: hDFCGF Assay for Matrix Metallopeptidase 1 (MMP1) Biomarker Activity (AID 2283064)
Details: primary human foreskin fibroblasts; actives raise or lower the signal
The source made the active and inactive calls. Rule for the calls: active = hit-call score of the fitted dose curve at least 0.9, where 1 is the maximum; inactive = score below 0.9.
Respond with a class label; see label 1 = active, label 0 = inactive

C#CCOC(=O)/C=C(C)/C=C/CC(C)CCCC(C)C (configuration not stated) :: label 0
OC(Cc1ccccc1Cl)(Cn1[nH]cnc1=S)C1(Cl)CC1 (configuration not stated) :: label 0
Nc1ccc(N)cc1 :: label 0
CCOC(=O)CC(=O)CCl :: label 0

query: // param item: `COc1ccccc1N` ; yields the recorded call
result: label 0

query: Can you handle `CCOP(=O)(OCC)OC(=CCl)c1ccc(Cl)cc1Cl` next?
result: label 1

query: Can you handle O=c1oc2ccccc2c(O)c1C(CC(O)c1ccc(-c2ccc(Br)cc2)cc1)c1ccccc1 (configuration not stated) next?
result: label 1

query: Can you handle `Oc1ccc(Cc2ccc(O)cc2)cc1` next?
result: label 0

query: Can you handle CC(C)(COCC1CO1)COCC1CO1 (configuration not stated) next?
result: label 0

query: Can you handle `Cc1cccc(OP(=O)(Oc2cccc(C)c2)Oc2cccc(C)c2)c1` next?
result: label 0

---

Assay: ATG_TGFb_CIS: Attagene CIS-FACTORIAL HepG2 Assay for human Transforming Growth Factor (TGF) (AID 2282967)
Settings: HepG2 Attagene CIS TGFb reporter, mRNA transcription; actives raise or lower the signal
Active and inactive are the calls of the source. How the source made its calls: active means hit-call score of the fitted dose curve at least 0.9, where 1 is the maximum; inactive means score below 0.9.
property-name: outcome

Cc1c([N+](=O)[O-])c(C)c([N+](=O)[O-])c(C(C)(C)C)c1[N+](=O)[O-] :: inactive
C=CCOC(F)(C(F)(F)F)C(F)(F)F :: inactive
O=C(NC(=O)c1c(F)cccc1F)Nc1cc(Cl)c(OC(F)(F)C(F)C(F)(F)F)cc1Cl (stereo not drawn) :: inactive

---

Read-out: Peroxisomal acyl-coenzyme A oxidase 1 (ACOX1) gene, ACOX1 (gene 51)
Assay: LTEA_HepaRG_ACOX1: Life Technologies and Expression Analysis (LTEA) Assay for Peroxisomal acyl-coenzyme A oxidase 1 (ACOX1) gene using HepaRG (AID 2283467)
Conditions: mRNA level, 48 h; actives raise or lower the signal
Calls of active or inactive are those of the source. How the source made its calls: active means hit-call score of the fitted dose curve at least 0.9, where 1 is the maximum; inactive means score below 0.9.
Respond with a class label; see yes (active), no (inactive)

Check out these entries, answers already filled in.
Oc1c(Cl)cc(Cl)cc1Cl :: no
N#Cc1cccnc1 :: no
O=C(O)C1(c2ccc3c(c2)OC[C@H](Cc2ccc(-c4ccccc4)cc2)[C@H]3O)CCCC1 :: yes
CN(C)C(=S)S :: no

Okay, now this compound:
query: // param item: `O=C(N[C@H]1CN2CCC1CC2)c1ccc2c(c1)OCCO2` ; yields the recorded call
result: no

---

Assay: APR_HepG2_MitoMass_72hr: Apredica 72-hour HepG2 Assay for Mitochondrial Mass (AID 2282924);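 note: MitoTracker Red CMXRos stain intensity per cell imaged as mitochondrial mass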
Conditions: high-content imaging, actives raise or lower the signal
The source made the active and inactive calls. Rule for the calls: active = hit-call score of the fitted dose curve at least 0.9, where 1 is the maximum; inactive = score below 0.9.
property-name: outcome

OCCN(CCO)CCO :: inactive
CC(C)(C)c1ccccc1O :: inactive
Clc1cccc(Cl)c1 :: inactive

---

Experiment: BSK_4H_Eotaxin3: BioMAP Diversity Plus: 4H Assay for Eotaxin 3 Biomarker Activity (AID 2283000)
Settings: primary human endothelial cells (HUVEC); actives raise or lower the signal
The source made the active and inactive calls. Rule for the calls: active = hit-call score of the fitted dose curve at least 0.9, where 1 is the maximum; inactive = score below 0.9.
Respond with a class label; see active, inactive

Check out these entries, answers already filled in.
COCC(=O)N(c1c(C)cccc1C)[C@H](C)C(=O)OC :: inactive
Cc1ccc(OP(=O)(Oc2ccc(C)cc2C)Oc2ccc(C)cc2C)c(C)c1 :: inactive
Cc1cc(Cl)ccc1OC(C)C(=O)O (centres undefined) :: inactive
O=C(CCl)NCO :: inactive
Oc1cc(Cl)c(Cl)cc1Cl :: active

query: // param item: `O=S(=O)(c1ccc(Cl)cc1)c1cc(Cl)c(Cl)cc1Cl` ; yields the recorded call
result: inactive

query: Can you handle `CCOC(=O)CC(=O)CCl` next?
result: active

query: Can you handle `Oc1cccc(-c2ccccc2)c1` next?
result: active

query: Can you handle CC(C)(COCC1CO1)COCC1CO1 (centres undefined) next?
result: inactive

---

Assay: TOX21_p53_BLA_p5_viability: Viability Assessment in the Tox21 HCT-116 p53 Agonism Beta-lactamase Assay, Phase 5 (AID 2283600)
Records with an inconclusive call do not appear. Activity calls are given as the source filed them. Rule for the calls: active = hit-call score of the fitted dose curve at least 0.9, where 1 is the maximum; inconclusive = response in the unintended direction; inactive = score below 0.9.
Respond with a class label; see active, inactive

Check out these entries, answers already filled in.
C[C@H]1C(=O)O[C@@H]2CCN3CC=C(COC(=O)[C@](C)(O)[C@]1(C)O)[C@H]23 :: inactive
Cc1cc(Cl)ccc1OCCCC(=O)O :: inactive

query: // param item: `Cc1cc(C(C)(C)c2ccc(O)c(C)c2)ccc1O` ; yields the recorded call
result: inactive

query: Can you handle `CCC[CH2][Sn]([CH2]CCC)([CH2]CCC)[CH2]CCC` next?
result: active

query: Can you handle `O=C1C[C@@H]2OCC=C3CN4CC[C@]56c7ccccc7N1[C@H]5[C@H]2[C@H]3C[C@H]46` next?
result: inactive

query: Can you handle `OCCCCO` next?
result: inactive

query: Can you handle `c1ccc(-c2cccc(-c3ccccc3)c2)cc1` next?
result: inactive

query: Can you handle `CCNc1nc(NCC)nc(SC)n1` next?
result: inactive

query: Can you handle `COC(=O)Nc1cccc(OC(=O)Nc2cccc(C)c2)c1` next?
result: inactive

---

Test: BSK_3C_VCAM1: BioMAP Diversity Plus: 3C Assay for Vascular cell adhesion molecule 1 (VCAM1) Biomarker Activity (AID 2282999)
Conditions: BioMAP 3C HUVEC, VCAM1 ELISA, cytokine-stimulated; actives raise or lower the signal
Active and inactive are the calls of the source. Rule for the calls: active = hit-call score of the fitted dose curve at least 0.9, where 1 is the maximum; inactive = score below 0.9.
Respond with a class label; see Yes = active, No = inactive

query: // param item: `O=C(N[C@H]1CN2CCC1CC2)c1ccc2c(c1)OCCO2` ; yields the recorded call
result: No

query: Can you handle `NC(=O)CCl` next?
result: No

query: Can you handle `O=C(O)C1(c2ccc3c(c2)OC[C@H](Cc2ccc(-c4ccccc4)cc2)[C@H]3O)CCCC1` next?
result: Yes

---

Assay: ATG_DR4_LXR_CIS: Attagene CIS-FACTORIAL HepG2 Assay for human Liver X Receptor (LXR), DR4 submotif (AID 2282929)
Settings: HepG2 Attagene DR4 cis-reporter, mRNA transcription; actives raise or lower the signal
Activity calls are given as the source filed them. Rule for the calls: active = hit-call score of the fitted dose curve at least 0.9, where 1 is the maximum; inactive = score below 0.9.
Respond with a class label; see True for active, False for inactive

Check out these entries, answers already filled in.
C=CC(=O)NC(C)(C)CC(C)=O :: False
N#CCC#N :: False

query: // param item: CCOC(=O)C(SP(=S)(OC)OC)c1ccccc1 (stereo unspecified) ; yields the recorded call
result: False

query: Can you handle `COCC(=O)N(c1c(C)cccc1C)[C@H](C)C(=O)OC` next?
result: False

---

Target: Estrogen receptor (Homo sapiens)
Assay: OT_ERa_GFPERaERE_0480: Odyssey Thera (OT) 8-hour HeLa Transcription Induction Assay for Estrogen Receptor (AID 2283381)
Activity calls are given as the source filed them. How the source made its calls: active means hit-call score of the fitted dose curve at least 0.9, where 1 is the maximum; inactive means score below 0.9.
property-name: AC50

Consider the worked cases shown below.
O=S1(=O)OC(c2cc(Br)c(O)c(Br)c2)(c2cc(Br)c(O)c(Br)c2)c2ccccc21 :: inactive
O=[N+]([O-])c1ccc(Cl)c([N+](=O)[O-])c1 :: 8.64 µM (active)
O=C(CCl)Nc1ccccc1 :: 84.8 µM (active)
O=CCCl :: inactive

With those in mind, consider the next molecule.
query: I'd like to know its AC50. The molecule in question is `O=C(O)COc1ccc(Cl)cc1`
result: inactive

---

Test: TOX21_p53_BLA_p2_viability: Viability Assessment in the Tox21 HCT-116 p53 Agonism Beta-lactamase Assay, Phase 2 (AID 2283591);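 note: compound exposure lasted 16 h at 37 °C; actives lower the ATP signal meaning cytotoxicity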
Inconclusive results are not listed. Activity calls are given as the source filed them. Rule for the calls: active = hit-call score of the fitted dose curve at least 0.9, where 1 is the maximum; inconclusive = response in the unintended direction; inactive = score below 0.9.
Respond with a class label; see yes (1) for active, no (0) for inactive

Check out these entries, answers already filled in.
CC(C)[C@H](C(=O)OC(C#N)c1cccc(Oc2ccccc2)c1)c1ccc(OC(F)F)cc1 (some centres not stated) :: no (0)
Cc1cc(SCc2sc(-c3ccc(C(F)(F)F)c(F)c3)nc2C)ccc1OCC(=O)O :: yes (1)
CCN(CC)C(=O)C(Cl)=C(C)OP(=O)(OC)OC :: no (0)

Okay, now this compound:
query: // param item: O=S1OC[C@@H]2[C@H](CO1)[C@]1(Cl)C(Cl)=C(Cl)[C@@]2(Cl)C1(Cl)Cl (some centres not stated) ; yields the recorded call
result: yes (1)

---

Target: Paired box protein Pax-6 (Homo sapiens)
Test: ATG_Pax6_CIS: Attagene CIS-FACTORIAL HepG2 Assay for human Paired Box 6 (PAX6) (AID 2282956)
Conditions: HepG2 CIS-FACTORIAL PAX6 reporter transcription, RNA readout; actives raise or lower the signal
Active and inactive are the calls of the source. How the source made its calls: active means hit-call score of the fitted dose curve at least 0.9, where 1 is the maximum; inactive means score below 0.9.
Respond with a class label; see 1 for active, -1 for inactive

Check out these entries, answers already filled in.
CCOC(=O)Cc1ccccc1 :: -1
C=CCN=C=S :: -1
O=NN1CCOCC1 :: -1
C=CCOC(F)(C(F)(F)F)C(F)(F)F :: -1
CCCCOP(=O)(CCCC)OCCCC :: -1
O=C1C[C@@H]2OCC=C3CN4CC[C@]56c7ccccc7N1[C@H]5[C@H]2[C@H]3C[C@H]46 :: -1
CCCCN(CCCC)C(=S)S :: 1
CCCCOC(C)=O :: -1

query: // param item: CC1CC(=O)O1 (stereo not given) ; yields the recorded call
result: -1

query: Can you handle `N#Cc1ccc(Cl)cc1` next?
result: -1

query: Can you handle `CCCCOC(=O)COC(=O)c1ccccc1C(=O)OCCCC` next?
result: -1

query: Can you handle CC(C)C(C)(N)C#N (stereo not given) next?
result: -1

query: Can you handle `O=C1C=CC(=O)c2ccccc21` next?
result: -1

query: Can you handle `O=c1nc(O)n(Cl)c(=O)n1Cl` next?
result: -1

query: Can you handle `C[N+](C)(C)Cc1ccccc1` next?
result: -1
